Attribution: patent US20230310428A1

SYSTEM_NAME: various mutants of kinase EGFR (BaF3 cell lines stably transfected with kinase) (Homo sapiens, UniProt P00533, C797S/L858R/T790M)
Construct: expressed in transfected cells; host or cells: BaF3
Sequence (P00533 25-1210 T790M/C797S/L858R): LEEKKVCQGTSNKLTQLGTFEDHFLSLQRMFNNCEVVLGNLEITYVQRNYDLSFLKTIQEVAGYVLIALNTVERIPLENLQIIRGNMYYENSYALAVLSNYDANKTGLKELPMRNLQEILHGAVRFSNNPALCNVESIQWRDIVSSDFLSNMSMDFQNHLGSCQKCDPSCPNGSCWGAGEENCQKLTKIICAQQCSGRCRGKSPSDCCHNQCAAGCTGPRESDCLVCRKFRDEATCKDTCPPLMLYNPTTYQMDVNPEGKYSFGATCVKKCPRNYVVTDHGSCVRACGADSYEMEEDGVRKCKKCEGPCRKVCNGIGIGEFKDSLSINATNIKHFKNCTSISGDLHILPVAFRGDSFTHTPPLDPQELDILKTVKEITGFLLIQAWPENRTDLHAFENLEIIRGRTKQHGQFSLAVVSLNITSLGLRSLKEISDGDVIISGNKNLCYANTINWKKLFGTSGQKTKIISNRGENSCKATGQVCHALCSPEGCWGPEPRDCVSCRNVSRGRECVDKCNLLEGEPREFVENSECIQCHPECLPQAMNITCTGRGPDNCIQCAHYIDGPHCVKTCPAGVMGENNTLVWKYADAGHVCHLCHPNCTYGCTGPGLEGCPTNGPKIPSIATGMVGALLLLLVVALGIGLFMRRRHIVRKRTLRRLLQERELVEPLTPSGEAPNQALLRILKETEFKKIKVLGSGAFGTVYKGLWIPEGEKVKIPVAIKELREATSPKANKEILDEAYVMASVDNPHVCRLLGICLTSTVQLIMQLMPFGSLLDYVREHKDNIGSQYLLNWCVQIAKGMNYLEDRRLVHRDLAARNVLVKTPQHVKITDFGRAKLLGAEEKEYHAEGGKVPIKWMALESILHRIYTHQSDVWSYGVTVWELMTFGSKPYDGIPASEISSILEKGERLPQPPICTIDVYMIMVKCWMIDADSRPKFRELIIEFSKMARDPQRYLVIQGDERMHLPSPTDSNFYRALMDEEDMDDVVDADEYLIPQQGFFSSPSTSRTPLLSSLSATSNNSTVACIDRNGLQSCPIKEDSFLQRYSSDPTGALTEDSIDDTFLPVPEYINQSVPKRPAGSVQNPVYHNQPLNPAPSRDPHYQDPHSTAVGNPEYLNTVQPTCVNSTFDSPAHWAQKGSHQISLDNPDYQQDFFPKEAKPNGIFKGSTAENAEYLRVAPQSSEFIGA
ASSAY_METHOD_TEXT: Growth inhibitory activity of compounds on BaF3 cell lines stably transfected with kinase (MTS, 48 h)
Assay type: cell-based
MEASUREMENT_CONTEXT: BaF3 cells stably transfected with EGFR L858R/T790M/C797S, read-out: IC50, growth inhibition, L858R/T790M/C797S
pIC50: −log10 of the molar value.
Would you kindly list pIC50 for each of these molecules?

Some solved entries appear below for comparison.
COc1cc(N2CCC(N(C)C)CC2)c(C)cc1Nc1ncc(Cl)c(Nc2ccc3nccnc3c2N(C)S(C)(=O)=O)n1 [Compound I-169] = ≥ 7.30
CCc1cc(Nc2ncc(Br)c(Nc3ccc4nccnc4c3N(C)S(=O)(=O)C(C)C)n2)c(OC)cc1N1CCC(N(C)C)CC1 [Compound I-137] = ≥ 7.30

Dear colleague, could you send me pIC50 for each of the items below? Thanks.
1. COc1cc(N2CCC(N3CCN(C)CC3)CC2)c(CC2CC2)cc1Nc1ncc(F)c(Nc2ccc3nccnc3c2N(C)S(=O)(=O)C2CC2)n1 [Compound I-251]
2. COc1nc(N2CCC(N3CCN(C)CC3)CC2)ccc1Nc1ncc(Br)c(Nc2ccc3nccnc3c2N(C)S(=O)(=O)C2CC2)n1 [Compound I-216]

["5.60 to 6.30", "6.30 to 7.30"]

Lab note: each molecule below needs its pIC50 filled in.
1. COc1cc(N2CCC(N(C)C)CC2)c(C)cc1Nc1ncc(Cl)c(Nc2ccc3nccnc3c2N(C2CC2)S(C)(=O)=O)n1 [Compound I-243]
2. CCc1cc(Nc2ncc(Br)c(Nc3ccc4nccnc4c3N(C3CC3)S(C)(=O)=O)n2)c(OC)cc1N1CCC(N2CCN(C)CC2)CC1 [Compound I-155]

["6.30 to 7.30", "≥ 7.30"]

Your task in this section: give pIC50 for each listed record.
1. CCN(c1c(Nc2nc(Nc3ccc(N4CCC(N5CCN(C)CC5)CC4)cc3OC)ncc2Cl)ccc2nccnc12)S(C)(=O)=O [Compound I-224]
2. C=Cc1cc(Nc2ncc(Br)c(Nc3ccc4nccnc4c3N(C)S(=O)(=O)C3CC3)n2)c(OC(F)(F)F)cc1N1CCC(N2CCN(C)CC2)CC1 [Compound I-219]
3. COc1cc(N2CCN(C)CC2)ccc1Nc1ncc(Br)c(Nc2ccc3nccnc3c2N(C)S(C)(=O)=O)n1 [Compound I-38]
4. CCN(c1c(Nc2nc(Nc3ccc(N4CCC(N5CCN(C)CC5)CC4)cc3OC)ncc2Br)ccc2nccnc12)S(C)(=O)=O [Compound I-211]

≥ 7.30
6.30 to 7.30
≥ 7.30
≥ 7.30

Hey, quick one: what's pIC50 for each of these?
1. COc1cc(N2CCC(N(C)C)C2)ccc1Nc1ncc(Br)c(Nc2ccc3nccnc3c2N(C)S(C)(=O)=O)n1 (stereo not shown) [Compound I-43]
2. C=Cc1cc(Nc2ncc(Br)c(Nc3ccc4nccnc4c3N(CC)S(C)(=O)=O)n2)c(OC(F)(F)F)cc1N1CCC(N2CCN(C)CC2)CC1 [Compound I-298]
3. COc1cc(N2CCC(N(C)C)C2)c(C)cc1Nc1ncc(Cl)c(Nc2ccc3nccnc3c2N(C)S(=O)(=O)C(F)(F)F)n1 (stereo not shown) [Compound I-268]

≥ 7.30
≥ 7.30
6.30 to 7.30

---

SYSTEM_NAME: various mutants of kinase EGFR (BaF3 cell lines stably transfected with kinase) (Homo sapiens, UniProt P00533, T790M/C797S, form not given)
Construct: other: BaF3 cells stably transfected with EGFR Δ19Del/T790M/C797S; MTS, 48; other: BaF3 cell line stably transfected with EGFR Δ19Del/T790M/C7
Sequence (P00533 with tags, fused parts or gaps DEL746-750/T790M/C797S, form open): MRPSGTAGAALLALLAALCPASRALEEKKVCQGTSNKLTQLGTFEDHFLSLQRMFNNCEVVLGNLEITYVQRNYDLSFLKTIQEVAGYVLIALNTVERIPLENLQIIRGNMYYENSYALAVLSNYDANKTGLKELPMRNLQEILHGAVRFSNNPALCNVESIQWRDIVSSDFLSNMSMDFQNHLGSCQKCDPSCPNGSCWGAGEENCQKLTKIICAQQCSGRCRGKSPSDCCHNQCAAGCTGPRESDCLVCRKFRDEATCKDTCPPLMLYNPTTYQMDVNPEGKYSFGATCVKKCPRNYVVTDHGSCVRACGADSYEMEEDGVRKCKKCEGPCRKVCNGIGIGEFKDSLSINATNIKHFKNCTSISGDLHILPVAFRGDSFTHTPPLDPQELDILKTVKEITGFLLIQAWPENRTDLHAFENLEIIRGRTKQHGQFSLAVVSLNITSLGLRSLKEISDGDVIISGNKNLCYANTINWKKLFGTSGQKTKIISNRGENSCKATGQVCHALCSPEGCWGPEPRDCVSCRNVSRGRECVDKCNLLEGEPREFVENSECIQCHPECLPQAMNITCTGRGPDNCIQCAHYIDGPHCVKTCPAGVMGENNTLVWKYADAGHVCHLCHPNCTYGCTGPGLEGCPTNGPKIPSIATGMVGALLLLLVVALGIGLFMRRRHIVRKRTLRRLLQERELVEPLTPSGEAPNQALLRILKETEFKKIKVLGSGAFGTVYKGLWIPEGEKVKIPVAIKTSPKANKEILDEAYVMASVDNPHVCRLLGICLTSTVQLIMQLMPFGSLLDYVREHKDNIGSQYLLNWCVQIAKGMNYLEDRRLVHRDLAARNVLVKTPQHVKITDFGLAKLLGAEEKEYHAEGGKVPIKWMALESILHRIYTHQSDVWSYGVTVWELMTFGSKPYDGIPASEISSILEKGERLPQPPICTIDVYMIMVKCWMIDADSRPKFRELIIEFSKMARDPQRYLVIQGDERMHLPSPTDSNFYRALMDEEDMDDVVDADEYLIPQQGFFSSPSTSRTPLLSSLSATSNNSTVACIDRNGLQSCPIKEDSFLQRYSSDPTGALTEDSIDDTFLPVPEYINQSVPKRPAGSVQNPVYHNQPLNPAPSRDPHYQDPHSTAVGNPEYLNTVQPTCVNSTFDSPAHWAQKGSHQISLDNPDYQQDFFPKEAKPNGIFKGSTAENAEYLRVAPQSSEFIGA
ASSAY_METHOD_TEXT: Growth inhibitory activity of compounds on BaF3 cell lines stably transfected with kinase (MTS, 48 h)
Format: cell-based
MEASUREMENT_CONTEXT: BaF3 cells stably transfected with EGFR Δ19Del/T790M/C797S, read-out: IC50, growth inhibition, Δ19Del/T790M/C797S
What IC50 was measured for each of the following?

Consider the following illustrative entries.
C=Cc1cc(Nc2ncc(C(F)(F)F)c(Nc3ccc4nccnc4c3N(C)S(C)(=O)=O)n2)c(OC(F)(F)F)cc1N1CCC(N2CCN(C)CC2)CC1 = ≤ 50 nM
COc1cc(N2CCC(N(C)C)C2)c(C)cc1Nc1ncc(Cl)c(Nc2ccc3nccnc3c2N(C)S(C)(=O)=O)n1 (stereo not drawn) = ≤ 50 nM
COc1nc(N2CCC(N3CCN(C)CC3)CC2)ccc1Nc1ncc(F)c(Nc2ccc3nccnc3c2N(C)S(C)(=O)=O)n1 = 50 to 500 nM

Kindly give each listed record's IC50.
1. COc1cc(N2CCC(N3CCCC3)CC2)ccc1Nc1ncc(Br)c(Nc2ccc3nccnc3c2N(C)S(C)(=O)=O)n1
2. COc1nc(N2CCN(C)CC2)ccc1Nc1ncc(Br)c(Nc2ccc3nccnc3c2N(C)S(C)(=O)=O)n1
3. CCc1cc(Nc2ncc(Cl)c(Nc3ccc4nccnc4c3N(C)S(=O)(=O)C(F)(F)F)n2)c(OC)cc1N1CCN(C)CC1

["≤ 50 nM", "50 to 500 nM", "50 to 500 nM"]

---

SYSTEM_NAME: various mutants of kinase EGFR (BaF3 cell lines stably transfected with kinase) (Homo sapiens, UniProt P00533, L858R)
Construct: expressed in transfected cells; host or cells: BaF3
Sequence (P00533 25-1210 L858R): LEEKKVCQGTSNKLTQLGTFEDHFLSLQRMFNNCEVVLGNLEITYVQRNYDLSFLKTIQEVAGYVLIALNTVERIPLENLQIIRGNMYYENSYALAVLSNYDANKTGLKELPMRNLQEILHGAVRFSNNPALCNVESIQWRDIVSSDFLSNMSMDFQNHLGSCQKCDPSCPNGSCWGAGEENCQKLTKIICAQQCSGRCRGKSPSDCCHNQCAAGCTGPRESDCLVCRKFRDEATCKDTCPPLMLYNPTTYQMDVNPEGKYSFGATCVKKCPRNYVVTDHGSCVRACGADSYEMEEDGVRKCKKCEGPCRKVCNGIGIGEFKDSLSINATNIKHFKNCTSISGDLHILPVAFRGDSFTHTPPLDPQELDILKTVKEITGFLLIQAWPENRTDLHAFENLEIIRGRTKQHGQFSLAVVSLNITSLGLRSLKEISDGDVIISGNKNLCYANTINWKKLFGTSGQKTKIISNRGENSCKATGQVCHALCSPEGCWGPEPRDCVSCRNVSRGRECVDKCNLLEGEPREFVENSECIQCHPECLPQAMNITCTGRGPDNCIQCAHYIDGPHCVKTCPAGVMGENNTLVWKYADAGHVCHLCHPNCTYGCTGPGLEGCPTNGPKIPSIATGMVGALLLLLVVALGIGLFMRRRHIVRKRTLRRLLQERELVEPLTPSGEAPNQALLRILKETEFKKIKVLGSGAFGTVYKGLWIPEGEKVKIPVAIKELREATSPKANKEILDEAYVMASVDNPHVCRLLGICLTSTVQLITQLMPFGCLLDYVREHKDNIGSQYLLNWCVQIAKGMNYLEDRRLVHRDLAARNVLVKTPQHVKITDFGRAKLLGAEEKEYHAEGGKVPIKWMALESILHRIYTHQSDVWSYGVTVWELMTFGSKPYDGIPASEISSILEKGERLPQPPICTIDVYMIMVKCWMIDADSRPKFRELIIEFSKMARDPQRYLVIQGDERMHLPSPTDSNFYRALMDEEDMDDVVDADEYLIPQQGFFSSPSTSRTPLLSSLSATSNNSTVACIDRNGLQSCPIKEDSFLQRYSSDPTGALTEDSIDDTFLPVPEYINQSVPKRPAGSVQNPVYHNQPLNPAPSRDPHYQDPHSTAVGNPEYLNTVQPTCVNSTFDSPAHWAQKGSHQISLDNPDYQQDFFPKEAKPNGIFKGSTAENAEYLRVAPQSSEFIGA
ASSAY_METHOD_TEXT: Growth inhibitory activity of compounds on BaF3 cell lines stably transfected with kinase (MTS, 48 h)
Assay type: cell-based
MEASUREMENT_CONTEXT: BaF3 cell line stably transfected with EGFR L858R, read-out: L858R growth inhibitory activity IC50
Consider the following compounds; for each one, report its IC50.

Observe how each entry below is paired with its result.
COc1cc(N2CCC(N3CCN(C)CC3)CC2)c(C)cc1Nc1nc(Nc2ccc3nccnc3c2N(C)S(C)(=O)=O)c2sccc2n1 = 0.05 to 0.5 µM
CCc1cc(Nc2ncc(Br)c(Nc3ccc4nccnc4c3NS(C)(=O)=O)n2)ccc1N1CCC(N2CCN(C)CC2)CC1 = ≤ 0.05 µM
CCc1cc(Nc2ncc(Br)c(Nc3ccc4nccnc4c3N(C)S(C)(=O)=O)n2)c(OC)cc1NCCN(C)C = 0.05 to 0.5 µM
CCc1cc(Nc2ncc(CC)c(Nc3ccc4nccnc4c3N(C)S(C)(=O)=O)n2)c(OC)cc1N1CCC(N(C)C)CC1 = ≤ 0.05 µM
CCc1cc(Nc2nc(Nc3ccc4nccnc4c3N(C)S(C)(=O)=O)c3occc3n2)c(OC)cc1N1CCC(N2CCN(C)CC2)CC1 = 0.05 to 0.5 µM

Provide each entry's IC50 from the list below.
1. CCc1cc(Nc2ncc(CC)c(Nc3ccc4nccnc4c3N(C)S(C)(=O)=O)n2)c(OC)cc1C(=O)N1CCC(N2CCN(C)CC2)CC1
2. CCc1cc(Nc2nc(Nc3ccc4nccnc4c3N(C)S(C)(=O)=O)c3sccc3n2)c(OC)nc1N1CCC(N2CCN(C)CC2)CC1
3. CCc1cc(Nc2nc(Nc3ccc4nccnc4c3N(C)S(C)(=O)=O)c3sccc3n2)c(OC(F)(F)F)cc1N1CCC(N2CCN(C)CC2)CC1
4. CN1CCN(C2CCN(c3c(F)cc(Nc4ncc(Cl)c(Nc5ccc6nccnc6c5N(C)S(C)(=O)=O)n4)cc3F)CC2)CC1
5. COc1cc(N2CCC(N3CCN(C)CC3)CC2)ccc1Nc1ncc(Cl)c(Nc2ccc3nccnc3c2N(C2CC2)S(C)(=O)=O)n1

1. 0.05 to 0.5 µM
2. 0.5 to 2.5 µM
3. 0.5 to 2.5 µM
4. ≤ 0.05 µM
5. 0.05 to 0.5 µM

Quick request: IC50 for each listed item, please.
1. COc1ccc(N2CCNCC2)cc1Nc1ncc(Br)c(Nc2ccc3nccnc3c2N(C)S(C)(=O)=O)n1
2. CCc1cc(Nc2nc(Nc3ccc4nccnc4c3N(C)S(C)(=O)=O)c3sccc3n2)c(OC)cc1N1CCC(N2CCN(C)CC2)CC1

0.05 to 0.5 µM
0.05 to 0.5 µM

What IC50 value was documented for this compound, CCc1cc(Nc2ncc(C(C)C)c(Nc3ccc4nccnc4c3N(C)S(C)(=O)=O)n2)c(OC)cc1N1CCC(N2CCN(C)CC2)CC1 ? ≤ 0.05 µM

---

SYSTEM_NAME: various mutants of kinase EGFR (BaF3 cell lines stably transfected with kinase) (Homo sapiens, UniProt P00533, L858R)
Construct: expressed in transfected cells; host or cells: BaF3
ASSAY_METHOD_TEXT: Growth inhibitory activity of compounds on BaF3 cell lines stably transfected with kinase (MTS, 48 h)
Format: cell-based
MEASUREMENT_CONTEXT: BaF3 cells stably transfected with EGFR L858R, read-out: IC50, growth inhibition, L858R
pIC50: −log10 of the molar value.
READOUT_KIND: pIC50

Example results:
COc1cc(N2CCC(N(C)C)CC2)c(C)cc1Nc1ncc(Cl)c(Nc2ccc3nccnc3c2N(C2CC2)S(C)(=O)=O)n1 [Compound I-243] = ≥ 7.30
CCc1cc(Nc2ncc(Cl)c(Nc3ccc4nccnc4c3N(C)S(C)(=O)=O)n2)c(OC)cc1N1CCC(N(C)C)C1 (stereo not shown) [Compound I-174] = ≥ 7.30

Okay, here is my list. What is pIC50 for each of these?
1. CCc1cc(Nc2ncc(F)c(Nc3ccc4nccnc4c3N(C)S(C)(=O)=O)n2)c(OC)cc1N1CCC(N2CCN(C)CC2)CC1 [Compound I-26]
2. COc1cc(N2CCC(N(C)C)C2)c(C)cc1Nc1ncc(Cl)c(Nc2ccc3nccnc3c2N(C)S(=O)(=O)C(F)(F)F)n1 (stereo not shown) [Compound I-268]
3. CCc1cc(Nc2ncc(C(F)(F)F)c(Nc3ccc4nccnc4c3N(C)S(C)(=O)=O)n2)c(OC)cc1N1CCC(N(C)C)C1 (stereo not shown) [Compound I-210]
4. CCc1cc(Nc2ncc(Br)c(Nc3ccc4nccnc4c3N(C)S(=O)(=O)C(C)C)n2)c(OC)cc1N1CCC(N(C)C)CC1 [Compound I-137]
5. COc1cc(N2CCC(N3CCN(C)CC3)CC2)c(Cc2ccccc2)cc1Nc1ncc(Cl)c(Nc2ccc3nccnc3c2N(C)S(C)(=O)=O)n1 [Compound I-168]
6. C=Cc1cc(Nc2ncc(Cl)c(Nc3ccc4nccnc4c3N(C)S(=O)(=O)C(F)(F)F)n2)c(OC(F)(F)F)cc1N1CCC(N2CCN(C)CC2)CC1 [Compound I-263]
7. CCc1cc(Nc2ncc(Cl)c(Nc3ccc4nccnc4c3N(C3CC3)S(C)(=O)=O)n2)c(OC)nc1N1CCC(N2CCN(C)CC2)CC1 [Compound I-241]

1: ≥ 7.30; 2: 5.60 to 6.30; 3: ≥ 7.30; 4: ≥ 7.30; 5: 5.60 to 6.30; 6: 5.60 to 6.30; 7: ≥ 7.30

Value sought for every listed compound: pIC50.
1. COc1cc(N2CCC(N3CCCC3)CC2)ccc1Nc1ncc(Br)c(Nc2ccc3nccnc3c2N(C)S(C)(=O)=O)n1 [Compound I-41]
2. CCS(=O)(=O)N(C)c1c(Nc2nc(Nc3cc(C)c(N4CCC(N5CCN(C)CC5)CC4)cc3OC)ncc2Br)ccc2nccnc12 [Compound I-99]
3. COc1ccc(C(=O)N2CCN(C)CC2)cc1Nc1ncc(Br)c(Nc2ccc3nccnc3c2N(C)S(C)(=O)=O)n1 [Compound I-81]
4. COc1cc(N2CCC(N(C)C)C2)ccc1Nc1ncc(Br)c(Nc2ccc3nccnc3c2N(C)S(C)(=O)=O)n1 (stereo not shown) [Compound I-43]

["≥ 7.30", "≥ 7.30", "5.60 to 6.30", "6.30 to 7.30"]
